# 5-HT2A % Act @ Max Dose per record follows
- tested_target: UniProt:P28223
- Type: cell-based
- condition_details: Ca^2+ flux, HEK293
Unit % implied. Number only.

CCC[C@@H](C)NC(=O)[C@@H]1C=C2c3cccc4[nH]cc(c34)C[C@H]2N(C)C1 = 91.47
CCCN1C[C@H](C(=O)N(CC)CC)C=C2c3cccc4[nH]cc(c34)C[C@H]21 = 96.96
CC[C@@H](C)NC(=O)[C@H]1C=C2c3cccc4[nH]cc(c34)C[C@H]2N(C)C1 = 72.6

Moving on to another molecule below.
Query :: Specify 5-HT2A % Act @ Max Dose for CCN(CC)C(=O)[C@@H]1C=C2c3cccc4[nH]cc(c34)C[C@H]2N(CCc2cccc(OC)c2)C1 and stop.
Result :: 77.19
